These data points were gathered from the supplement of paper PMC6555819.

- Tested on: PXR homodimer (NR concentration 270 nM)
- Assay text: PBM binding z-score (relative to random genomic background probes); higher = stronger binding; sequences stand for … in GC…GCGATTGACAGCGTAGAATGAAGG
Experimental endpoint: PBM binding z-score
Format: numeric value only, no unit, no commentary.

Solved cases (6 shown):
>>> obs_value("CAAACTACGTCACGAAAGGTCAAAGTCGAATGAC")
1.91
>>> obs_value("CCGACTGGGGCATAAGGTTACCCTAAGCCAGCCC")
-0.708
>>> obs_value("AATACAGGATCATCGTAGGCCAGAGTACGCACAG")
0.257
>>> obs_value("CCGACTGGGGCGAGGTTACCATAACGCACAGCCA")
-0.517
>>> obs_value("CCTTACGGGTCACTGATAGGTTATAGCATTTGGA")
0.321
>>> obs_value("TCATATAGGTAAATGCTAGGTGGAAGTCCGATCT")
0.0145

Given `ACAGACAGGTGATGAAGGCAACTCAGGCTATCAT` , state its recorded PBM binding z-score.
-0.142

// PBM binding z-score lookup, key: `AGAATGAGGTTATTAAGATCAGGCAATTGCGGTC`
0.322

---

Measured PBM binding z-score of individual entries
- Test system: RARa homodimer (NR concentration 270 nM)
- Assay text: PBM binding z-score (relative to random genomic background probes); higher = stronger binding; sequences stand for … in GC…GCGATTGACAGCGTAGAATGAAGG
Please respond with just the number, no unit label.

>>> obs_value("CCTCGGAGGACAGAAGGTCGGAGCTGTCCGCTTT")
-0.449

So what PBM binding z-score did `TCATATAAGTAAAGGTGAAAGTCGAACGATATGA` get with RARa homodimer (NR concentration 270 nM)?
0.59

What is its PBM binding z-score for RARa homodimer (NR concentration 270 nM)? Entry: `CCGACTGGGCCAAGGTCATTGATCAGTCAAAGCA`
0.257

Identify the measured PBM binding z-score of `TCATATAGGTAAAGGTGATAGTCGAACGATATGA` for RARa homodimer (NR concentration 270 nM).
0.68

Param readout = PBM binding z-score; param system = RARa homodimer (NR concentration 270 nM); param query = `CAAACTAGGTCAGAGGTCAAAGTCGAGCCAACCA` ; response: value
2.29

---

- Test system: THRa homodimer (NR concentration 90 nM)
- Assay text: PBM binding z-score (relative to random genomic background probes); higher = stronger binding; sequences stand for … in GC…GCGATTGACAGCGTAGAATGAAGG
Experimental endpoint: PBM binding z-score
Reply: number alone, nothing else.

>>> obs_value("ATCTCTAGATAAAAGTTCAGTGAATCCCGAGGAT")
-0.209
>>> obs_value("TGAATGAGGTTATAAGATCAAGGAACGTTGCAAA")
0.279
>>> obs_value("GCGACTGGGGCAAAGCAGGTTAACATAAGGTTGG")
0.0848
>>> obs_value("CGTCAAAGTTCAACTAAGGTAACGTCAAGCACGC")
1.86
>>> obs_value("GGAACGAGGGCAAGTTGATACCAGAGTTTGATGG")
-0.003
>>> obs_value("TCTATTAGTTGAAGCGCAACCGACGAGTCCGTTT")
-0.12
>>> obs_value("CGGACTAGGTCATTGACAGGACAGTGAATAGTAA")
0.733
>>> obs_value("ACTAGCAGGCCAAGGGGCACTCAAGATTAGTCCG")
-0.582

Record `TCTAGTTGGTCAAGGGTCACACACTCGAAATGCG` : what is its PBM binding z-score with THRa homodimer (NR concentration 90 nM)?
1.47

Tell me reported PBM binding z-score for `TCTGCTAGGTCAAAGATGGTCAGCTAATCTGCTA` , tested with THRa homodimer (NR concentration 90 nM).
0.196

Hello, I am looking for reported PBM binding z-score with THRa homodimer (NR concentration 90 nM) for `TCATAAAGGTAAAGGTGAAAGTCGAACGATATGA` . Could you help?
-0.454

# value lookup — system THRa homodimer (NR concentration 90 nM), readout PBM binding z-score, item `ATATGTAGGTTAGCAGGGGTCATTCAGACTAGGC`
1.78

---

- System: VDR:RXRa (NR concentration 270 nM, RXRa partner concentration 90 nM)
- Assay text: PBM binding z-score (relative to random genomic background probes); higher = stronger binding; sequences stand for … in GC…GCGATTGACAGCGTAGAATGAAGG
Consider the following sequences and their measured PBM binding z-score readings.

Worked examples follow.
>>> obs_value("TGTCAAAGTTCAAATGTAACGTAAGTATCCACAC")
4.57
>>> obs_value("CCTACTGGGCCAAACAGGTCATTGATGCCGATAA")
2.82
>>> obs_value("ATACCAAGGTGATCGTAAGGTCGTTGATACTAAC")
2.74

Which PBM binding z-score is reported for this sequence? `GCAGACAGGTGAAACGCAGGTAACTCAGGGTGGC`
-0.544

Using the record for `AGTCAAAGTTCATCTAGGAAACGTAAGATATGCT` , report its PBM binding z-score.
4.66

Quick check: PBM binding z-score of `TAGCCTAGTTCATGGGCCAGTATACCACGCGAAC` ?
0.685

---

- Tested on: PPARg:RXRa (NR concentration 180 nM, RXRa partner concentration 90 nM)
- Assay text: PBM binding z-score (relative to random genomic background probes); higher = stronger binding; sequences stand for … in GC…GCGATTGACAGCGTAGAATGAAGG
Consider the reported PBM binding z-score of an entry and match it to a band in bin A (below 0.5), bin B (0.5 to below 2), bin C (2 or more)

Use these answered entries as a reference point.
>>> category_label("ACAAGTTGGTCAGCTGAGGTCACACACAATTCGG")
"bin C"
>>> category_label("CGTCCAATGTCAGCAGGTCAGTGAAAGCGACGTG")
"bin A"
>>> category_label("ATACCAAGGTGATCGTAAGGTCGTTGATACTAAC")
"bin B"
>>> category_label("GATGCTAGGTCAGGTTGGTCAGCTAACGGGTACG")
"bin B"
>>> category_label("CGAAAGAGGGCATGAGTTGATAGCAAATGCCGAT")
"bin B"
>>> category_label("TCCTATAGGTAAATGCTAGGTGAAAGTCCGATCT")
"bin A"
>>> category_label("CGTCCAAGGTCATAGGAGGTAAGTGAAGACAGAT")
"bin C"
>>> category_label("CCTGCTAGGTCAGTGGTCAGCTAAAGCAGCTCGC")
"bin B"

Consider the record given below.
State the band of `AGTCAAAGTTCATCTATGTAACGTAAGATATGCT`
bin C

---

- System: VDR homodimer (NR concentration 270 nM)
- Assay text: PBM binding z-score (relative to random genomic background probes); higher = stronger binding; sequences stand for … in GC…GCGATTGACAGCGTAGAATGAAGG
Experimental endpoint: PBM binding z-score
Give a plain numeric answer without units written out.

In the examples that follow, each entry is paired with its recorded PBM binding z-score.
>>> obs_value("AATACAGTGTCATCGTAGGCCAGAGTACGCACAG")
0.395
>>> obs_value("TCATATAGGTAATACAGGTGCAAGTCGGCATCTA")
1.03
>>> obs_value("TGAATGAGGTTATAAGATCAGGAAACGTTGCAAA")
0.225
>>> obs_value("ATATGTAGGTTAGCTGGGGTCATACAGACTAGGC")
4.09
>>> obs_value("GATACCGGGTCAAGGCCAGAGTACGCGTATTGAT")
1.07

// switching to the query sequence
Dear colleague, I am looking for the recorded PBM binding z-score of the following sequence: `TGTCATAGTTCAAAGGTAACGTAAGTATCCACAC`
1.23

---

- Tested on: RARg homodimer (NR concentration 270 nM)
- Assay text: PBM binding z-score (relative to random genomic background probes); higher = stronger binding; sequences stand for … in GC…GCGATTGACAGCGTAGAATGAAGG
Please map values of PBM binding z-score to classes as shown: lower = under 1, middle = from 1 up to 4, upper = 4 and over

Check out these entries, answers already filled in.
>>> category_label("CCTGCTGGGCCATCAGGTCATTGATATCAACGTT")
"middle"
>>> category_label("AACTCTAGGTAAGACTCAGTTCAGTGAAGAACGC")
"lower"
>>> category_label("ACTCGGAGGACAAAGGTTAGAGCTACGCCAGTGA")
"middle"
>>> category_label("TCTATTTGTTGAAGGGCAACCGACGAGTCCGTTT")
"middle"
>>> category_label("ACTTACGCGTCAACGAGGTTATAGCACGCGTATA")
"lower"

The entry to classify is `AATACAGGGTCATCGGAGGCCAGAGTACGCACAG` ; which class holds it?
upper

# classify by PBM binding z-score band: `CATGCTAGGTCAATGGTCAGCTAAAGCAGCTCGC`
upper

Category of `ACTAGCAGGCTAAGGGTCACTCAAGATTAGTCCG` , please.
middle

Consider `GCTTACGGGTCAAAGGTTATAGCGTGAATAGAAT` . To which PBM binding z-score class does it belong?
upper

Please let me know in which category the item `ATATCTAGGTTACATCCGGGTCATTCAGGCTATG` belongs.
middle

Which bin, given its PBM binding z-score, does `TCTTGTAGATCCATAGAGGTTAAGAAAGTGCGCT` occupy?
lower
